B1: TPR t1 (parent)
chain: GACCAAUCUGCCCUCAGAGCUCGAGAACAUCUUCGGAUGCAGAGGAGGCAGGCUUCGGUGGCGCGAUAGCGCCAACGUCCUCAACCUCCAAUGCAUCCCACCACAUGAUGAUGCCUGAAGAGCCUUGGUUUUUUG

- Variants of: B1
- PROTOCOL_NOTES: polymerase ribozyme fitness, log enrichment relative to wild type (log ratio); higher = more active; in vitro selection for triplet polymerase activity
OBSERVABLE: polymerase ribozyme fitness (log ratio)
Numbers only.

// below: answered variants
{"columns": ["MUTATION_DESCRIPTOR", "OBSERVABLE", "MEAS_VALUE"],
 "data": [
  ["A27U C40G U132A", "polymerase ribozyme fitness (log ratio)", -5.01],
  ["C3U U7C A18C G52A C94A", "polymerase ribozyme fitness (log ratio)", -5.04],
  ["C20A G93A", "polymerase ribozyme fitness (log ratio)", -3.32],
  ["U32C G42C C123G", "polymerase ribozyme fitness (log ratio)", 1.74],
  ["A5U A18G C20G C82U C94U A111C U112G A121C", "polymerase ribozyme fitness (log ratio)", -6.26],
  ["U9C C80U A91G", "polymerase ribozyme fitness (log ratio)", -0.111],
  ["C11A C12A U14G A18C G63C C85U A103G U106A G107A A108C C114U G117C", "polymerase ribozyme fitness (log ratio)", -6.98],
  ["A6C C15U C34A G39C", "polymerase ribozyme fitness (log ratio)", -5.02]
]}

For every listed record, write down its polymerase ribozyme fitness (log ratio).
1. A26C U54G C70A U109G
2. G47A C72U U78A C88A A119U U132C
3. U38G A121C
4. C13U G44U A50G C53U C56U G93U C124G
5. U33G G48U G60A C97G G120A
6. C73G U96G C115G
7. C70G G117A

[-5.98, -1.87, 1.24, -1.13, -7.27, -3.54, -3.54]

// input: 3 variants below; output: polymerase ribozyme fitness (log ratio) for each
1. C56A A111U U129C
2. C79A C85A A119U
3. C80U U106C

-4.47
-5.64
-0.325
